targetSystem: Cellular tumor antigen p53 (Homo sapiens) (UniProt P04637)
Sequence (P04637 whole entry, looked up): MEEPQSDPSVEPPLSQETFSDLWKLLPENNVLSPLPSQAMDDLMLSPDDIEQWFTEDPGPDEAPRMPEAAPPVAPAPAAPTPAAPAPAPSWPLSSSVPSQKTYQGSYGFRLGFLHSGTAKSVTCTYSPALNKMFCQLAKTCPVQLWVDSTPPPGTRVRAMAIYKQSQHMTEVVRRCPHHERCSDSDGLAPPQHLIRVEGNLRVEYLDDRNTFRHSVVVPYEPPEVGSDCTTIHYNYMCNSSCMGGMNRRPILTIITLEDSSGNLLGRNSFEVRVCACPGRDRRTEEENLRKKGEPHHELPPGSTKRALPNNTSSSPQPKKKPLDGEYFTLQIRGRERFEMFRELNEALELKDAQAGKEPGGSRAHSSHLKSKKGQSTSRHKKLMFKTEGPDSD
assayText: TOX21_p53_BLA_p3_ratio: Tox21 HCT-116 p53 Agonism Beta-lactamase Assay, Ratio, Phase 3 (AID 2283596)
Inconclusive results are not listed. Active and inactive are the calls of the source. How the source made its calls: active means hit-call score of the fitted dose curve at least 0.9, where 1 is the maximum; inconclusive means response in the unintended direction; inactive means score below 0.9.
recordedMetric: outcome

Consider the reported outcome for these molecules:
>>> result("CS(=O)(=O)OCCCNCCCOS(C)(=O)=O")
"inactive"
>>> result("CCCC(=O)O[C@]1(C(=O)CCl)[C@@H](C)C[C@H]2[C@@H]3CCC4=CC(=O)C=C[C@]4(C)[C@@]3(F)C(=O)C[C@@]21C")
"inactive"
>>> result("CN1C[C@H](C(=O)N[C@]2(C)O[C@@]3(O)[C@@H]4CCCN4C(=O)[C@H](Cc4ccccc4)N3C2=O)C[C@@H]2c3cccc4[nH]cc(c34)C[C@H]21")
"inactive"
>>> result("CC(O)CO (centres undefined) (tested in a mixture with another compound)")
"inactive"
>>> result("CCC(=O)OCc1ccc(OC)cc1")
"inactive"

Report outcome for every entry below.
1. C[N+]1(C)CCC(=C(c2ccccc2)c2ccccc2)CC1
2. N=C(N)c1ccc2cc(OC(=O)c3ccc(N=C(N)N)cc3)ccc2c1
3. CCN(Cc1ccccc1)c1ccccc1
4. CO[Si](CCCCl)(OC)OC
5. CON=C(C(=O)N[C@@H]1C(=O)N2C(C(=O)O)=C(COC(N)=O)CS[C@H]12)c1ccco1
6. O=C(O)CNCC(=O)O
7. CC(C)CC(=O)CC(C)CC(C)C (centres undefined)
8. SC1CCCCC1

1. inactive
2. inactive
3. inactive
4. inactive
5. inactive
6. inactive
7. inactive
8. inactive

List the reported outcome of each molecule below.
1. C[S+](CC[C@H](N)C(=O)O)C[C@H]1O[C@@H](n2cnc3c(N)ncnc32)[C@H](O)[C@@H]1O (some centres undefined)
2. CCO[Si](CC(C)C)(OCC)OCC
3. COc1ccc2cc3[n+](cc2c1OC)CCc1cc2c(cc1-3)OCO2

1: inactive; 2: inactive; 3: inactive

Please give outcome for each item listed below.
1. CC(=O)Nc1ccc(C)cc1
2. Nc1ncnc2c1ncn2[C@@H]1O[C@H](CO)[C@@H](O)[C@H]1O
3. O=C1c2ccccc2C(=O)C1c1ccc(Cl)cc1
4. CC(C)OC(=O)OCOP(=O)(CO[C@H](C)Cn1cnc2c(N)ncnc21)OCOC(=O)OC(C)C
5. CC(C)c1ccc2sc3ccccc3c(=O)c2c1
6. Cc1cc(O)c2c(O)c3c(O)cccc3cc2c1
7. O=C(O)c1ccncc1
8. CCCCCCCCCCCCCC[N+](C)(C)Cc1ccccc1

["inactive", "inactive", "inactive", "inactive", "inactive", "inactive", "inactive", "inactive"]
